System: Huh7.5 cells
Conditions: human, 3 days
Method: 1) Wash cells once with PBS, trypsinize. […] Mix twice by pipeting. […] Make a common stock from all tubes. […] 15) Incubate for 24 hr before treatment. 3) Repeat daily for 2 more days. 1) Alamar blue assay—a) Include medium for background subtraction (and also for seeing change in color easily). b) Aspirate medium. c) Make a stock of medium plus 10% Alamar blue. Total volume per well is 100 μl. d) Incubate for 2-2.5 hrs at 37° C. (or until there is a color change). c) Read plates at flex station.
Property Measured: 2a cell viability (@ 5 μM) (%)
Kindly provide the numeric value in % only, without the unit symbol.

* NC(=O)[C@@H]1CCCN1CCCOc1nn(Cc2ccc(Cl)cc2)c2ccccc12 [EBP385] | 100
* O=C(O)C[C@@H]1CCCN1CCCOc1nn(Cc2ccc(Cl)cc2)c2ccccc12 [EBP508] | 100
* c1ccc(Cn2nc(OCCCN3CCCCC3)c3ccccc32)cc1 [EBP192] | 88
* OCC1CCCCN1CCCOc1nn(Cc2ccc(Cl)cc2)c2ccc(Cl)cc12 (centres unmarked) [EBP503] | 86

Note down 2a cell viability (@ 5 μM) recorded for Clc1ccc(Cn2nc(OCCCN3CCC[C@H]3CN3CCCC3)c3ccccc32)cc1 [EBP395]
89

Report measured 2a cell viability (@ 5 μM); entry is COC(=O)[C@@H]1CC[C@H](O)N1CCCOc1nn(Cc2ccc(Cl)cc2)c2ccccc12 [EBP507]
90

State its 2a cell viability (@ 5 μM) for this molecule: Cc1ccc2c(c1)c(OCCCN1CCCC1)nn2Cc1ccccc1 [EBP178]
92

Retrieve 2a cell viability (@ 5 μM) measured for COc1ccc(COc2nn(Cc3ccc(OC)cc3)c3ccccc23)cc1 [EBP330] and print it.
100

Please report 2a cell viability (@ 5 μM) for the following molecule: CC(C)(C)OC(=O)N1CCC(Cn2nc(OCCN3CCCC3)c3ccccc32)CC1 [EBP340]
98

Give 2a cell viability (@ 5 μM) for the following molecule: c1ccc(Cn2nc(OCCN3CCCCC3)c3ccccc32)cc1 [EBP175]
98

Give the measured 2a cell viability (@ 5 μM) for Cc1ccc2c(c1)c(OCCN(C)C)nn2Cc1ccccc1 [EBP182]
100

Using known records, supply 2a cell viability (@ 5 μM) for O[C@H]1CCN(CCOc2nn(Cc3ccc(Cl)cc3)c3ccccc23)C1 [EBP400]
100

Determine from records and report 2a cell viability (@ 5 μM) for C[C@@H](COc1nn(Cc2ccc(Cl)cc2)c2ccccc12)CN1CCC[C@H]1CO [EBP449]
99

Look up 2a cell viability (@ 5 μM) of CC(C)c1ccc(Cn2nc(OCCN3CCCC3)c3ccccc32)cc1 [EBP336] and report it.
95

* * *

System: HCV 1b RNA replicon
Test: Luciferase assay for HCV genotype 1b replicon reporter cell lines
Conditions: read-out: 1b EC50; 1b replicon, Huh7, 48 hours, top concentration 25 μM
Property Measured: pEC50
Units for pEC50: none; it is -log10 of a concentration expressed in mol/L.

Using the record for C[C@H]1CCCN1CCCOc1nn(Cc2ccc(Cl)cc2)c2ccc(-c3cccnc3)cc12 , state its measured pEC50.
5.09

* * *

Test system: Huh7.5 cells
Conditions: human, 3 days
Property Measured: 2a cell viability (@ 5 μM)
Quick note: number first, unit second.

Below: 3 compounds and their reported 2a cell viability (@ 5 μM).
• Clc1ccc(Cn2nc(OCCN3CCCC3)c3ccccc32)cc1 [EBP333] = 97%
• c1cncc(Cn2nc(OCCN3CCCC3)c3ccccc32)c1 [EBP356] = 95%
• Clc1ccc(Cn2nc(OCCCN3CCCCCC3)c3ccccc32)cc1 [EBP397] = 100%

Entry Cc1ccc(Cn2nc(OCCN3CCCC3)c3ccccc32)cc1 [EBP335] needs its 2a cell viability (@ 5 μM) filled in; supply it.
10%

Identify measured 2a cell viability (@ 5 μM) associated with C[C@H]1CCCN1CCCOc1nn(Cc2ccc(Cl)cc2)c2ccccc12 [EBP391]
100%

Tell me measured 2a cell viability (@ 5 μM) for COC(=O)c1cccc(Cn2nc(OCCN3CCCC3)c3ccccc32)c1 [EBP338] please.
100%
